assay: NCI Yeast Anticancer Drug Screen. Data for the mec2-1 strain (AID 157); conditions: S. cerevisiae mec2-1 strain, at 50.0 µM, stronger effect = higher value
This is part of a sample that, as a whole, favours compounds with a hit. Of some 79,000 tested, about 15% had one in any assay.
Consider the following compounds; for each one, report its growth inhibition.
Report as a plain number; the unit % is understood.

The reported value for O=C(Cl)OC1CS(=O)(=O)CC1O (stereo not drawn) in terms of growth inhibition is 1

So, `Nc1nc(-c2ccccc2)c[se]1` ? Its growth inhibition was 32.3

Recorded result, `CC1(C)N=C(N)N=C(N)N1c1cccc(CCCCc2ccc(S(=O)(=O)F)c(Cl)c2)c1` , growth inhibition: 99.7

The recorded growth inhibition for entry CC(C)(C)N1COC2CCCCC21 (stereo not drawn) equals -3.2

For `FC(F)(F)C(OP(OC(C(F)(F)F)C(F)(F)F)OC(C(F)(F)F)C(F)(F)F)C(F)(F)F` the compound record lists growth inhibition as 8.95

So for `FC(F)(F)c1cccc(NC2=NCCS2)c1` , the logged growth inhibition turned out to be -46.1

Lab book: growth inhibition of `CC(C)COP(=O)(Cc1ccccc1)OCC(C)C` noted as 5.65

Measured growth inhibition of `C=Cn1nnc(N)n1` : -0.45

Measured growth inhibition of `O=C(Cl)c1ccc[nH]1` : -13.9

For record `CC1(C)O[C@]2(C)CC[C@@H]1[C@@H](O)[C@@H]2N1CCCC1` the listed growth inhibition is -8.6

Recorded growth inhibition (compound `Cc1cc(C)[c]([Hg][Cl])c(C)c1` ): 98.7

Per the record, O=[As]c1ccc(C(=O)Cl)cc1 (stereo not drawn) has growth inhibition of -16.4

# growth inhibition (compound: O=C(c1ccccc1)C1CN(C2CCCC2)C1c1ccccc1 (stereo not drawn) ) is 7.6

* * *

Kindly state growth inhibition for each of the entries shown.
assay: NCI Yeast Anticancer Drug Screen. Data for the mec2-1 strain (AID 157); conditions: S. cerevisiae mec2-1 strain, at 50.0 µM, stronger effect = higher value
This is part of a sample that, as a whole, favours compounds with a hit. Of some 79,000 tested, about 15% had one in any assay.
Answer format: numeric, % implied, no suffix.

So for `Cn1nnnc1NC#N` , the logged growth inhibition turned out to be 4.85

For `C=C(C)CNC1=C(C)C(=O)C2=C(C1=O)[C@H](COC(N)=O)[C@]1(OC)[C@@H]3N[C@@H]3CN21` the compound record lists growth inhibition as -9.35

Notebook: NC(N)=N/N=C1\C(=O)N(c2cccc([N+](=O)[O-])c2)C(=O)C1C(=O)Nc1cccc([N+](=O)[O-])c1 (configuration not stated) , growth inhibition read as -22.4

The value of growth inhibition measured for the compound O=C(OCC1CCCN2CCCCC12)c1ccncc1 (configuration not stated) turned out to be 2.9

// growth inhibition lookup, compound = CCCC/C=C/C=C/C=C/CCCCCCCC(=O)OCC(COC(=O)CCCCCCC/C=C/C1C=CC(CCCC)C(C(=O)O)C1C(=O)O)OC(=O)CCCCCCC/C=C/C=C/C=C/CCCC (configuration not stated) (tested in a mixture with another compound) , result: -20.1

Measured growth inhibition of [C-]#[O+].[C-]#[O+].[C-]#[O+].[C-]#[O+].[Cr].c1ccc(P(CCP(CCP(c2ccccc2)c2ccccc2)c2ccccc2)CCP(c2ccccc2)c2ccccc2)cc1 (configuration not stated) : 23.2

Query C1=CC2C=CC(C=C1)[PH+]2c1ccccc1.[C-]#[O+].[C-]#[O+].[C-]#[O+].[C-]#[O+].[C-]#[O+].[Cr] (configuration not stated) yields growth inhibition of 2.1

* * *

assay: NCI Yeast Anticancer Drug Screen. Data for the sgs1 mgt1 strain (AID 161);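 note: 0% = growth of cultures given vehicle only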; conditions: S. cerevisiae sgs1 mgt1 strain, at 50.0 µM, stronger effect = higher value
This is part of a sample that, as a whole, favours compounds with a hit. Of some 79,000 tested, about 15% had one in any assay.
Consider the following compounds; for each one, report its growth inhibition.
Give the value in % but do not write % after it.

// growth inhibition value for `CN(C)P(=O)(N(C)C)N(C)C.[CH3][Sn]([CH3])([Cl])[Cl]` : 52.4

So, CCC1(CCC(C)C)C(=O)NC(=O)N(C)C1=O (stereo unspecified) ? Its growth inhibition was -1.75

Recorded growth inhibition (compound CCCCCCCCCCCCCCCC(=O)OCC1OC(OC)C2NP(=O)(N(CCCl)CCCl)OC1C2O (stereo unspecified) ): -40.4

// sample CC(C)NCC(O)c1ccc(Cl)c(Cl)c1 (stereo unspecified) , its growth inhibition was -14

growth inhibition in this record for S=C(N/N=C\c1cccc(I)c1)NC1CN2CCC1CC2 (stereo unspecified) : 14.4

According to the records, this compound `C=C1CCN2CC[C@@H](OC(=O)/C(C)=C\C)[C@@H]12` displays growth inhibition of 7.1

Please fill in: growth inhibition reported for `N[C@@H]1CCCC[C@@H]1N.O=P([O-])([O-])CN(CP(=O)([O-])[O-])CP(=O)([O-])[O-].[Pt+2]` = -10.2

The recorded growth inhibition for entry CCC1(N)C(=O)OCc2c1cc1n(c2=O)Cc2cc3ccccc3nc2-1 (stereo unspecified) equals -39.6

Reported growth inhibition ( `Nn1cnnc1` ) = -9.7

Sure, the documented growth inhibition for `Nc1ccc(C(=O)O)cc1[As](O)O` is 5.95

Data point: Cc1ccc(S(=O)(=O)OC2CC3c4ccccc4C2c2cccc[n+]23)cc1 (stereo unspecified) ; growth inhibition = 36.4

* * *

test: NCI Yeast Anticancer Drug Screen. Data for the mec2-1 strain (AID 157); details: S. cerevisiae mec2-1 strain, at 50.0 µM, stronger effect = higher value
About 79,000 compounds went through this panel and 15% of them were active in at least one assay; those are over-represented in the sample as a whole.
Note to self: values exactly at -30% are t. So growth inhibition at or above -30% is t, below is f.

Kindly determine if growth inhibition recorded for `S=C(SP(SC(=S)N1CCCCC1)SC(=S)N1CCCCC1)N1CCCCC1` is above or exactly -30%.
f

Has `N=C(N)N.[O]=[Cr](=[O])([OH])[OH]` a recorded growth inhibition greater than or equal to -30%?
f

Item C[C@]12CC[C@H]3[C@@H](CCC4=C[C@@H](OC5OCC(OC6OC(CO)C(O)C(O)C6O)C(O)C5O)CC[C@@]43C=O)[C@@]1(O)CCC2C1=CC(=O)OC1 (stereo not given in full) with growth inhibition of -30% or above?
t

State whether the measured growth inhibition reaches -30%, counting equality as reaching it, for `Clc1cccc2ccccc12`
t

Is it the case that `C[Si](C)(C)[C@@]1([Se]c2ccccc2)CC[C@@H]1C(=O)c1ccccc1` has growth inhibition reaching or exceeding -30%?
t

* * *

test: NCI Yeast Anticancer Drug Screen. Data for the mec2-1 strain (AID 157); details: S. cerevisiae mec2-1 strain, at 50.0 µM
About 79,000 compounds went through this panel and 15% of them were active in at least one assay; those are over-represented in the sample as a whole. Activity calls are given as the source filed them. Cut-off read from the data, not from the text of the source: active = growth inhibition above about 70%; inactive = the rest.
I would appreciate it if you answered using one of these outcomes: YES = active, NO = inactive

Per the records of this test, what outcome belongs to NCC(Cc1ccccc1)P(=O)(O)O (centres undefined) ?
NO

What was the test verdict on `SCc1ccccc1.[Cu+2]` ?
NO

Any idea what this test logged for `[O-][Cl+3]([O-])([O-])O.[O-][n+]1c2ccccc2nc2ccccc21.[Zn+2]` ?
NO

Any idea what this test logged for `COc1ccc2c(c1O)[C@@]13CCCC=C1[C@@H](C2)[N+](C)(C)CC3` ?
NO

Name the outcome recorded for `CC(C)NCCc1c[nH]c2ccccc12` in the assay.
NO

Hi team, can someone confirm the assay call for `CC[C@@H](C)C(=O)O[C@H]1[C@H](O)[C@H]2[C@@H](CN3C[C@@H](C)CC[C@H]3[C@@]2(C)O)[C@@H]2C[C@]34O[C@]5(O)[C@@H](OC(=O)[C@@](C)(O)CC)CC[C@@]3(C)[C@@H]5[C@@H](OC(C)=O)[C@@H](OC(C)=O)[C@H]4[C@@]21O` ?
NO

// param item: `CCNC1=C(N2CC2)C(=O)C(NCC)=C(N2CC2)C1=O` ; yields the recorded call
NO

For `O=NNc1cc(=O)[nH]c(=O)[nH]1` , which call appears in the assay record?
NO

How did this test come out for `O=[N+]([O-])c1ccc(/C=C/C=C/C=C/C=C/c2ccc(S(=O)(=O)F)cc2Cl)c(Cl)c1` ?
NO

Answer briefly: the call reported for `CCOC(OCC)c1ccc(C(F)(F)F)cc1.[C-]#[O+].[C-]#[O+].[C-]#[O+].[Cr]` in this assay.
NO

Outcome? COC1CC2C=CC3C4OC2(/C(C)=C/C(C)C(C(C)O)OC1=O)C3C(O)C(C)C4OC(=O)c1ccc[nH]1 (centres undefined)
NO

# fetch the recorded call for `O=[N+]([O-])c1ccc(/C=C/c2cc(Cl)ccc2S(=O)(=O)F)c(Cl)c1` here
NO

Record lookup: outcome of this test for `CCC[As](=O)(O)Cc1ccccc1C` ?
NO

Record request — test call for `CCOC(=O)COc1cc(Cl)c(S(=O)(=O)F)cc1Cl`
YES
